Origin of values: patent US10738030B2

Each entry below lists one item and its recorded Emax value.
Target: F508del (Homo sapiens, UniProt P13569, DEL508-508)
Construct: expressed in transfected cells
Sequence (P13569 with tags, fused parts or gaps DEL508-508): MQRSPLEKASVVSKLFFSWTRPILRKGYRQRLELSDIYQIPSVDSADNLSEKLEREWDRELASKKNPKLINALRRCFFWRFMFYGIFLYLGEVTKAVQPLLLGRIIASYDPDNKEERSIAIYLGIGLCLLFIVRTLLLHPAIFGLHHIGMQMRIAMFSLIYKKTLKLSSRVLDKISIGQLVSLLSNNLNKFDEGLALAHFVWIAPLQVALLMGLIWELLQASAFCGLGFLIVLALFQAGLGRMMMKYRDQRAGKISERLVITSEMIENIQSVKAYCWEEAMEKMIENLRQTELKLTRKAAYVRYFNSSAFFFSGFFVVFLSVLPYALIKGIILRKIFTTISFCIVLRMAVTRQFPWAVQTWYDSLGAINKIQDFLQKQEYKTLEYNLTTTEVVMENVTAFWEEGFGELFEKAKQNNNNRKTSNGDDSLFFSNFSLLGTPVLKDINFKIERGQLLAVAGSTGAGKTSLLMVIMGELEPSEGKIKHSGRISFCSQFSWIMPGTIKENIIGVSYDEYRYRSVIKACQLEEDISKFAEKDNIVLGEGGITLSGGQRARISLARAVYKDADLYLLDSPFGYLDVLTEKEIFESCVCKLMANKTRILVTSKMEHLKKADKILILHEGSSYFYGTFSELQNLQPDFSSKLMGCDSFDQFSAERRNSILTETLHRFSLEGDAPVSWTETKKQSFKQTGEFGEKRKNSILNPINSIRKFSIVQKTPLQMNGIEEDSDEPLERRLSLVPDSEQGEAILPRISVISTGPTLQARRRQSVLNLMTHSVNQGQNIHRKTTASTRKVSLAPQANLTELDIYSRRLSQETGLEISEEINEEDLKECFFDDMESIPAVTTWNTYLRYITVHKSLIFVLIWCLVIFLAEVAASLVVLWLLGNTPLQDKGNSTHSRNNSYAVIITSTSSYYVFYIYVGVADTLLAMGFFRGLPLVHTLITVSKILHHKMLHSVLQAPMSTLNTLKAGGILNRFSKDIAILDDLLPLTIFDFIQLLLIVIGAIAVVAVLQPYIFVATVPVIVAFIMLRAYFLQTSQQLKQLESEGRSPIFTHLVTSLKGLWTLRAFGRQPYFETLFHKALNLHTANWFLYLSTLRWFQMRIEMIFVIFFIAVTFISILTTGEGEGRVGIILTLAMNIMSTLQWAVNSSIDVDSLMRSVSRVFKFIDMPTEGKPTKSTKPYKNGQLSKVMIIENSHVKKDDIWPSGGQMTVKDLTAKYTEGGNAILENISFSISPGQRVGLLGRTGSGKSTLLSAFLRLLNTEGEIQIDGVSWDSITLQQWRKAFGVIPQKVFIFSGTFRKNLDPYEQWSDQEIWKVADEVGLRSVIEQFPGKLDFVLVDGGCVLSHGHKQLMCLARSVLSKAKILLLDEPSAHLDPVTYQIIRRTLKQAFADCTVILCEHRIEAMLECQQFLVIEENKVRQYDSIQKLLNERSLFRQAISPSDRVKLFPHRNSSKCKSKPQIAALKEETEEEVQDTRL
Experiment: Membrane potential optical assay (FRET voltage-sensor dyes), identification of correction compounds
Assay type: cell-based
Conditions: maximum efficacy; NIH3T3 cells stably expressing F508del; procedures described above; read-out: Max Efficacy

Please review the entries below; each comes with its answer.
CC(C)COc1cc(F)cc(-c2ccc(C(=O)NS(=O)(=O)c3cccc(N)n3)c(C(C)C(C)C)n2)c1 (centres unmarked) [Compound 76]	30 to 80%
CCCC(C)Oc1nc(-c2cc(F)cc(OCC(C)C)c2)ccc1C(=O)NS(=O)(=O)c1cccc(N)n1 (centres unmarked) [Compound 56]	> 80%
CCN(CC)c1nc(-c2cc(F)cc(OCC(C)C)c2)ccc1C(=O)NS(=O)(=O)c1ccn[nH]1 [Compound 46]	30 to 80%

-- ask What does the data say about its Emax? Entry: CCOCCOc1nc(-c2cc(F)cc(OCC(C)C)c2)ccc1C(=O)NS(=O)(=O)c1cccc(N)n1 [Compound 13]
-- reply 30 to 80%

-- ask Entry CCC(C)(C)Oc1nc(-c2cc(F)cc(OCC(C)C)c2)ccc1C(=O)NS(=O)(=O)c1cccc(N)n1 [Compound 44] : reported Emax = ?
-- reply > 80%

-- ask Dear colleague, I am looking for the recorded Emax of the following compound: CC[C@@H](C)Oc1nc(-c2cc(F)cc(OCC(C)C)c2)ccc1C(=O)NS(=O)(=O)c1cccc(N)n1 [Compound 59]
-- reply 30 to 80%

-- ask Can you look up the measured Emax of CC(C)COc1cc(F)cc(-c2ccc(C(=O)NS(=O)(=O)c3ccn[nH]3)c(N(C)C(C)C)n2)c1 [Compound 79] for me?
-- reply > 80%

-- ask Need Emax, item CCCNc1cccc(S(=O)(=O)NC(=O)c2ccc(-c3cc(F)cc(OCC(C)C)c3)nc2NCCC)n1 [Compound 39]
-- reply 30 to 80%

-- ask Param item = CC#CCCOc1nc(-c2cc(F)cc(OCC(C)C)c2)ccc1C(=O)NS(=O)(=O)c1cccc(N)n1 [Compound 35] ; retrieve measured Emax.
-- reply 30 to 80%

----------
Entries and their Emax
Target: F508del (Homo sapiens, UniProt P13569, DEL508-508)
Construct: expressed in transfected cells
Test: Membrane potential optical assay (FRET voltage-sensor dyes), identification of correction compounds
Type: cell-based
Details: maximum efficacy; NIH3T3 cells stably expressing F508del; procedures described above; read-out: Max Efficacy

Observe how each entry below is paired with its result.
CCN(c1nc(-c2cc(F)cc(OCC(C)C)c2)ccc1C(=O)NS(=O)(=O)c1ccn[nH]1)C(C)C	> 80%
CCC(COC)Oc1nc(-c2cc(F)cc(OCC(C)C)c2)ccc1C(=O)NS(=O)(=O)c1cccc(N)n1 (centres unmarked)	30 to 80%
CC(C)COc1cc(F)cc(-c2ccc(C(=O)NS(=O)(=O)c3cccc(N)n3)c(NCCC(C)(C)O)n2)c1	30 to 80%
CCN(CC)c1nc(-c2ccc(OC(C)C)nc2)ccc1C(=O)NS(=O)(=O)c1cccc(N)n1	30 to 80%

-- ask Field: Emax (F508del (Homo sapiens, UniProt P13569, DEL508-508)). Entry: COC[C@@H](C)Oc1nc(-c2cc(F)cc(OCC(C)C)c2)ccc1C(=O)NS(=O)(=O)c1cccc(N)n1
-- reply 30 to 80%
